All values here come from patent US8071589B2.

Examples of compounds with documented pEC50 follow.
MEASURED ON: human FSH receptor (Homo sapiens)
Sequence (P23945 18-695): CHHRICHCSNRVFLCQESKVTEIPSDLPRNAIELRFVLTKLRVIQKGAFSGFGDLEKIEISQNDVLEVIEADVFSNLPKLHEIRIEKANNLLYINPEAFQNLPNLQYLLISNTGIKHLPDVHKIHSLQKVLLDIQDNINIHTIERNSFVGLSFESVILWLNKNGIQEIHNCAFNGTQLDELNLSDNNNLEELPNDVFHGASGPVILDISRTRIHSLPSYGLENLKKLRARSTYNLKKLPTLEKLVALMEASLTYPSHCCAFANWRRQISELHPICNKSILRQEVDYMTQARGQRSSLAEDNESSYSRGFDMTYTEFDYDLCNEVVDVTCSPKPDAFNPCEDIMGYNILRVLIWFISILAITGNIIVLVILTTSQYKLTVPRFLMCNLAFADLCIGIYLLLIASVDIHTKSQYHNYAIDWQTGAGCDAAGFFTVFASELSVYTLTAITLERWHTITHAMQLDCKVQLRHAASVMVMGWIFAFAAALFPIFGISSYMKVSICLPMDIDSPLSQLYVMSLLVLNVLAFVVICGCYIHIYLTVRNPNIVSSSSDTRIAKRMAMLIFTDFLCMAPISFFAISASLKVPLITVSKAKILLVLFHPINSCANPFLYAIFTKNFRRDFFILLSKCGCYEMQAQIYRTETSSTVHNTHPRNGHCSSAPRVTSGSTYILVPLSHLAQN
RUN DESCRIPTION: Agonistic activity at the human FSH receptor expressed in CHO cells (CRE-luciferase reporter)
pEC50: −log10 of the molar value.

COc1cc2c(cc1-c1cccnc1)-c1c(c(C(=O)N(C)C(C)(C)C)nn1-c1ccccc1Cl)CC2 [Example 11gb]: > 7.00
COc1cc2c(cc1OC(C)C)-c1c(c(C(=O)N3CCCN(C(C)=O)CC3)nn1-c1ccc(F)cc1)CC2 [Example 3c]: > 7.00
COc1cc2c(cc1OC(C)C)-c1c(c(C(=O)N3CCCN(C(=O)C4CCC4)CC3)nn1-c1ccc(F)cc1)CC2 [Example 3d]: > 7.00

Please provide the recorded pEC50 for COc1cc2c(cc1OC(C)C)-c1c(c(C(=O)N(C)C(C)(C)C)nn1-c1cccs1)CC2 [Example 5b] , tested on human FSH receptor (Homo sapiens).
> 7.00

Can you handle COc1cc2c(cc1OC(C)C)-c1c(c(C(=O)N3CCCN(C(=O)C4CCC4)CC3)nn1-c1ccsc1)CC2 [Example 2g] next?
> 7.00

Can you handle COc1cc2c(cc1OC(C)C)-c1c(c(C(=O)N(C)C(C)(C)C)nn1-c1ccsc1)CC2 [Example 2h] next?
> 7.00
